- System: AVR1674 (LFG2 3F3:3H9:2C10:4B10)
- Assay explanation: biolayer interferometry (Octet), biotinylated peptide on streptavidin tips, LFG2:4B10 mAb at 500 nM
Ends that are not written are not given here.
Reported values of Response R for individual entries
Endpoint name: Response R (nm)

In [3]: df
Out[3]:
                                     binder  readout_unit  value_reported
0  TFQDEIGGGSK-biotin […-biotin (SEQ ID NO: 37)]            nm            1.34
1  TFKDEIGGGSK-biotin […-biotin (SEQ ID NO: 25)]            nm            4.84
2  TFKDAIGGGSK-biotin […-biotin (SEQ ID NO: 30)]            nm            1.01
3  TFKDEAGGGSK-biotin […-biotin (SEQ ID NO: 31)]            nm            5.29
4  THKDEIGGGSK-biotin […-biotin (SEQ ID NO: 36)]            nm            2.37
